# System: COLO 205 colon
# assay: NCI tumour cell line growth inhibition, 48 h
Here, each record is paired with measured TGI data.

# count of solved cases: 8
| molecule | TGI |
| --- | --- |
| Nc1ccc2c(c1)c(N)nn2C(=O)Nc1ccc(Cc2ccccc2)cc1 | 26.5 µM |
| C=[CH][Sn]([CH]=C)([O]c1cccc2cccnc12)[O]c1cccc2cccnc12 | 3.19 µM |
| CCCCCCCCCCCCCCCCOC(=O)c1cc(O)cc(C(=O)OCCCCCCCCCCCCCCCC)c1 | > 100 µM |
| O=C(NCCCCCCCNC(=O)OCc1ccc2c(Cl)cc(Cl)c(O)c2n1)OCc1ccc2c(Cl)cc(Cl)c(O)c2n1 | 2 µM |
| O=C1CN(/N=C/c2ccc(-c3ccc(F)cc3)o2)C(=O)N1 | > 100 µM |
| Oc1[nH]c2cc(Cl)ccc2c1/C=c1/ccc2c(c1)N=C(c1cc(F)cc(F)c1)N=2 | 5.29 µM |
| CCOC(=O)c1cn(C)c(=S)n2c1nc1ccccc12 | > 100 µM |
| Cc1cc(Cl)cc2c1NC(=O)C2=O (tested in a mixture with another compound) | > 100 µM |

*Q* Record request: TGI value, item Cc1cc2cc3c(cc2c(-c2ccc(N)cc2)n1)OCO3
*A* 88.5 µM

*Q* What do you have for Cc1cc(C(O)CN(C)C)cc2c1ccc1cc(C(C)C)ccc12 (centres undefined) ?
*A* 3.32 µM

*Q* What do you have for COc1cccc(C2NC(=S)NC(C)=C2C(=O)Nc2ccc(Cl)c(Cl)c2)c1 (centres undefined) ?
*A* 30.5 µM

*Q* What do you have for CC1OC(OC2CCC3(C=O)C4CCC5(C)C(C6=CC(=O)OC6)CCC5(O)C4CCC3(O)C2)C(O)C(O)C1O (centres undefined) ?
*A* 0.0025 µM

*Q* What do you have for C#CCN(Cc1ccc2nc(N)[nH]c(=O)c2c1)c1ccc(C(=O)NC(CCC(=O)O)C(=O)O)cc1 (centres undefined) ?
*A* > 100 µM

*Q* What do you have for COc1ccc2nc3n(c2c1)CCc1cc(OC)c(OC)cc1-3 ?
*A* 90.8 µM

*Q* What do you have for C[C@@H]1C[C@]2(C[C@@H](C)C3[C@@H](CC4(C)[C@@H]5CCC6C(C)(C)OC(=O)C=C[C@]67C[C@@]5(CC[C@]34C)OO7)O2)OC1=O (some centres undefined) ?
*A* > 100 µM

*Q* What do you have for Cc1c(C(=O)CSc2nc3ccccc3[nH]2)c(=O)n(-c2ccccc2)n1C ?
*A* > 100 µM

*Q* What do you have for O=C(Nc1cccc(-n2cc(-c3ccncc3)c(-c3ccc(O)c(Cl)c3)n2)c1)c1cccc(C(F)(F)F)c1 ?
*A* 72.9 µM

*Q* What do you have for CC(=O)CC(=O)CCC(=O)O ?
*A* > 100 µM

*Q* What do you have for COC(=O)/C(=N\NC(N)=S)C(C#N)c1ccccc1 (centres undefined) ?
*A* > 100 µM

meta.source: PubChem BioAssay (NCI)
